Assay: Partition coefficient (logP)
Format: physicochemical
Settings: octanol/water
quantity.measured: logP
Reply with just the number.

- compound: "Cc1cn([C@@H]2O[C@H](CO)C[C@H]2F)c(=O)[nH]c1=O"
  logP: -0.44
- compound: "O=c1[nH]c(=O)n(C2OC(CO)CC2F)cc1F (stereo unspecified)"
  logP: -0.72
- compound: "O=c1ccn(C2CCC(CO)O2)c(=O)[nH]1 (stereo unspecified)"
  logP: -1
- compound: "O=c1ccn([C@@H]2O[C@H](CO)[C@@H](O)[C@H]2O)c(=O)[nH]1"
  logP: -1.94
- compound: "O=c1[nH]c(=O)n(C2OC(CO)CC2F)cc1Cl (stereo unspecified)"
  logP: -0.28
- compound: "Nc1nc(=O)n(C2OC(CO)CC2F)cc1Cl (stereo unspecified)"
  logP: -0.46
- compound: "Nc1nc(=O)n(C2OC(CO)CC2F)cc1F (stereo unspecified)"
  logP: -0.92
- compound: "Nc1ccn([C@@H]2O[C@H](CO)C[C@@H]2F)c(=O)n1"
  logP: -1.18

I have this compound here, O=c1ccn(C2OC(CO)CC2F)c(=O)[nH]1 (stereo unspecified) , and I need its recorded logP.
-0.87

I have this compound here, Nc1nc(=O)n([C@@H]2CC[C@H](CO)O2)cc1F , and I need its recorded logP.
-1.09

I have this compound here, Nc1ccn([C@H]2C=C[C@@H](CO)O2)c(=O)n1 , and I need its recorded logP.
-1.57

====

Assay: Therapeutic index (IC50/EC50) was determined
Conditions: read-out: TI
quantity.measured: selectivity ratio
Reply with just the number.

- compound: "Nc1ccn([C@@H]2O[C@H](CO)C[C@@H]2F)c(=O)n1"
  selectivity ratio: 39

Consider now this further compound.
I have this compound here, Nc1ccn([C@H]2CC[C@@H](CO)O2)c(=O)n1 [ZALCITABINE] , and I need its recorded selectivity ratio.
380

====

System: CCRF-CEM
Assay: Effect on HIV-induced cytopathogenesis in CEM cells.
Type: functional, cell-based
Conditions: Homo sapiens
Below, each of the molecules is paired with its reported IC50 value.
Dear colleague, please return just the value in µM, with no unit written.

- molecule: "Nc1ccn([C@@H]2O[C@H](CO)C[C@@H]2F)c(=O)n1"
  value.unit: "µM"
  IC50: 43

I have this molecule here, Nc1ccn([C@H]2CC[C@@H](CO)O2)c(=O)n1 [ZALCITABINE] , and I need its recorded IC50.
120

====

Tested on: ATH-8 cell line
Assay: Percent protection of ATH8 cells from HIV-induced cytopathic effects at a concentration of 5 uM.
Assay type: functional, Homo sapiens
quantity.measured: Protection (%)
Dear colleague, please return just the value in %, with no unit written.

Past entries and their recorded results:
- molecule: "Nc1ccn([C@@H]2O[C@H](CO)C[C@@H]2F)c(=O)n1"
  value.unit: "%"
  recorded.measurement: 53
- molecule: "Nc1nc(=O)n([C@@H]2CC[C@H](CO)O2)cc1F"
  value.unit: "%"
  recorded.measurement: 99
- molecule: "Nc1nc(=O)n(C2OC(CO)CC2F)cc1F (centres undefined)"
  value.unit: "%"
  recorded.measurement: 73

I have this molecule here, Nc1ccn([C@H]2CC[C@@H](CO)O2)c(=O)n1 , and I need its recorded Protection.
88
